# System Under Test: 11β-hsd-1 enzyme (Homo sapiens)
# Test Method Notes: 11β-hsd-1 enzyme assay, percentage of inhibition (3H-cortisone to cortisol, radio-HPLC)
# Format: biochemical
# Condition: 0.1 uM; read-out: % inh @ 0.1 uM
Attribute Measured: inhibition at 0.1 µM (%)
Write it as a number; the unit % goes unstated.

Use these answered entries as a reference point.
CCOC(=O)Cc1cccc(NS(=O)(=O)c2ccc(-c3ccc(C#N)cc3)cc2)n1 85.4
Cc1cccc(NS(=O)(=O)c2ccc(-c3ccccc3C)cc2)n1 77.6
Cc1cc(N)nc(NS(=O)(=O)c2ccc(-c3ccc(C#N)cc3)cc2)c1 100
Cc1cccc(NS(=O)(=O)c2ccc(-c3ccc(F)c(Cl)c3)cc2)n1 89.9
N#Cc1ccc(-c2ccc(S(=O)(=O)Nc3ccccn3)cc2)cc1 53.4

QUERY: I'd like to know its inhibition at 0.1 µM. The compound in question is Cc1cc(C)nc(NS(=O)(=O)c2cccc(Cl)c2C)n1
RESULT: 4

----------
# System Under Test: 11β-hsd-1 enzyme (Homo sapiens)
# Test Method Notes: 11β-hsd-1 enzyme assay, percentage of inhibition (3H-cortisone to cortisol, radio-HPLC)
# Assay type: biochemical
# Condition: 0.1 uM; read-out: % inh @ 0.1 uM
Attribute Measured: inhibition at 0.1 µM (%)
Write it as a number; the unit % goes unstated.

Cc1cccc(NS(=O)(=O)c2ccc(F)cc2F)n1 7.4
Cc1cccc(NS(=O)(=O)c2ccc(-c3ccc(OCc4ccccc4)cc3)cc2)n1 90.4

QUERY: I'd like to know its inhibition at 0.1 µM. The molecule in question is Cc1cccc(NS(=O)(=O)c2ccc(-n3cccn3)cc2)n1
RESULT: 29.8

QUERY: I'd like to know its inhibition at 0.1 µM. The molecule in question is COc1ccc(F)cc1-c1ccc(S(=O)(=O)Nc2cccc(C)n2)cc1
RESULT: 29.5

QUERY: I'd like to know its inhibition at 0.1 µM. The molecule in question is COC(=O)c1cccc(NS(=O)(=O)c2cccc(Cl)c2C)n1
RESULT: 23.9

QUERY: I'd like to know its inhibition at 0.1 µM. The molecule in question is N#Cc1ccc(-c2ccc(S(=O)(=O)Nc3cccc(CCO)n3)cc2)cc1
RESULT: 84.8

QUERY: I'd like to know its inhibition at 0.1 µM. The molecule in question is Cc1cccc(NS(=O)(=O)c2sc3ccc(Cl)cc3c2C)n1
RESULT: 98

QUERY: I'd like to know its inhibition at 0.1 µM. The molecule in question is Cc1cccc(NS(=O)(=O)c2ccc(-c3ccc4c(c3)OCO4)cc2)n1
RESULT: 91.2

QUERY: I'd like to know its inhibition at 0.1 µM. The molecule in question is Cc1cccc(NS(=O)(=O)c2ccc(-c3ccccc3Cl)cc2C)n1
RESULT: 93

QUERY: I'd like to know its inhibition at 0.1 µM. The molecule in question is Cc1c(Cl)cccc1S(=O)(=O)Nc1cccc(CC(=O)O)n1
RESULT: 25.2

----------
# System Under Test: 11β-hsd-1 enzyme (Homo sapiens, UniProt P28845)
# Sequence (P28845 whole entry, species assumed): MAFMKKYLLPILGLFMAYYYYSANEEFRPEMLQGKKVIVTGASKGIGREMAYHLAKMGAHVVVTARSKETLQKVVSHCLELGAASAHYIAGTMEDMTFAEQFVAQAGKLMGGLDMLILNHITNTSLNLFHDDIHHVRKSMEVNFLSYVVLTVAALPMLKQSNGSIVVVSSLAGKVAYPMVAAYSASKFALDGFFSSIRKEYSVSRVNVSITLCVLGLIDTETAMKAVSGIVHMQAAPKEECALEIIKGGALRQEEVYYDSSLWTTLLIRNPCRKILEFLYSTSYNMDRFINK
# Test Method Notes: 11β-hsd-1 enzyme assay, Kiapp determination (3H-cortisone to cortisol, radio-HPLC)
# Type: biochemical
# Condition: read-out: Ki app
pKi: −log10 of the molar value.
Criterion: pKi meeting or surpassing 8. Met: True. Not met: False.

Worked examples, 5 compounds total:
Cc1c(S(=O)(=O)Nc2cccc(N)n2)sc2ccc(Cl)cc12 True
CCN(CC)C(=O)Cc1cccc(NS(=O)(=O)c2cccc(Cl)c2C)n1 False
Cc1cccc(NS(=O)(=O)/C=C/c2ccccc2)n1 False
Cc1cccc(NS(=O)(=O)c2sc3ccc(Cl)cc3c2C)n1 True
CCc1cccc(NS(=O)(=O)c2cccc(Cl)c2C)n1 False

QUERY: Does the reported pKi for Cc1cccc(NS(=O)(=O)c2sc3ccc(F)cc3c2C)n1 fall at or above the 8 mark?
RESULT: True

QUERY: Does the reported pKi for CCc1cccc(NS(=O)(=O)c2ccc(C(F)(F)F)cc2)n1 fall at or above the 8 mark?
RESULT: False

QUERY: Does the reported pKi for Cc1cccc(NS(=O)(=O)c2ccc(-c3ccc(F)cc3)cc2)n1 fall at or above the 8 mark?
RESULT: False

QUERY: Does the reported pKi for Cc1cccc(NS(=O)(=O)c2ccc3c(Cl)cccc3c2)n1 fall at or above the 8 mark?
RESULT: True

QUERY: Does the reported pKi for Cc1c(S(=O)(=O)Nc2cccc(CCO)n2)sc2ccc(Cl)cc12 fall at or above the 8 mark?
RESULT: True

QUERY: Does the reported pKi for Cc1cccc(NS(=O)(=O)c2ccc(-c3ccc(Cl)cc3)cc2C)n1 fall at or above the 8 mark?
RESULT: True

QUERY: Does the reported pKi for Cc1cccc(NS(=O)(=O)c2ccc(-c3ccccc3)cc2)n1 fall at or above the 8 mark?
RESULT: False

QUERY: Does the reported pKi for Cc1cccc(NS(=O)(=O)c2ccc(-c3ccc(CO)cc3)cc2C)n1 fall at or above the 8 mark?
RESULT: False

QUERY: Does the reported pKi for Cc1cccc(NS(=O)(=O)c2ccc(-c3ccc(C(C)C)cc3)cc2C)n1 fall at or above the 8 mark?
RESULT: False

QUERY: Does the reported pKi for Cc1cccc(NS(=O)(=O)c2ccc(-c3cccc(O)c3)cc2C)n1 fall at or above the 8 mark?
RESULT: False

QUERY: Does the reported pKi for Cc1cccc(NS(=O)(=O)c2ccc3ccc(Cl)cc3c2)n1 fall at or above the 8 mark?
RESULT: False

QUERY: Does the reported pKi for Cc1cc(C)nc(NS(=O)(=O)c2ccc(-c3ccccc3)cc2)c1 fall at or above the 8 mark?
RESULT: False

QUERY: Does the reported pKi for CCc1cccc(NS(=O)(=O)c2sc(-c3ccc(C#N)cc3)nc2C)n1 fall at or above the 8 mark?
RESULT: True

QUERY: Does the reported pKi for CCc1cccc(NS(=O)(=O)c2sc(-c3ccccc3)nc2C)n1 fall at or above the 8 mark?
RESULT: False

QUERY: Does the reported pKi for Cc1cccc(NS(=O)(=O)c2ccc(C(C)C)cc2)n1 fall at or above the 8 mark?
RESULT: False

QUERY: Does the reported pKi for COc1ccc(-c2ccc(S(=O)(=O)Nc3cccc(C)n3)c(C)c2)cc1OC fall at or above the 8 mark?
RESULT: False

QUERY: Does the reported pKi for Cc1cccc(NS(=O)(=O)c2ccc(-c3ccccc3C)cc2C)n1 fall at or above the 8 mark?
RESULT: False

QUERY: Does the reported pKi for Cc1cccc(NS(=O)(=O)c2sc(-c3ccc(C#N)cc3)nc2C)n1 fall at or above the 8 mark?
RESULT: True
